Test system: Plasmodium falciparum
method-notes: Inhibition of Plasmodium falciparum protein farnesyltransferase at 0.5 nM by scintillation proximity assay
Label label 1 when inhibition is at or above 4%; anything below gets label 0.

INSERT INTO assay_data (compound, label_class) VALUES
  ('Cn1cnc(S(=O)(=O)N(Cc2ccc(S(C)(=O)=O)cc2Cl)C2Cc3cc(C#N)ccc3N(Cc3cncn3C)C2)c1 (configuration not stated)', 'label 1'),
  ('CN(CCCCN(C1Cc2cc(C#N)ccc2N(Cc2cncn2C)C1)S(=O)(=O)c1ccccn1)C(=O)OC(C)(C)C (configuration not stated)', 'label 1'),
  ('Cn1cnc(S(=O)(=O)N(CC(=O)NC(C)(C)C)C2Cc3cc(C(=O)O)ccc3N(Cc3cncn3C)C2)c1 (configuration not stated)', 'label 0'),
  ('CCS(=O)(=O)N1CCC(CN(C2Cc3cc(C#N)ccc3N(Cc3cncn3C)C2)S(=O)(=O)c2ccccn2)CC1 (configuration not stated)', 'label 1'),
  ('Cn1cncc1CN1CC(N(CC2CCN(C(=O)NC(C)(C)C)CC2)S(=O)(=O)c2ccccn2)Cc2cc(C#N)ccc21 (configuration not stated)', 'label 1'),
  ('COC(=O)N1CCC(CN(C2Cc3cc(C#N)ccc3N(C(C)c3cnc[nH]3)C2)S(=O)(=O)c2ccccn2)CC1 (configuration not stated)', 'label 1'),
  ('Cn1cncc1CN1CC(N(Cc2ccccc2F)C(=O)c2c[nH]cn2)Cc2cc(C#N)ccc21 (configuration not stated)', 'label 1'),
  ('Cc1ccsc1S(=O)(=O)N(Cc1ccc(S(C)(=O)=O)cc1)C1Cc2cc(C#N)ccc2N(Cc2cncn2C)C1 (configuration not stated)', 'label 1'),
  ('Cn1cncc1CN1CC(N(CC2CCN(C(=O)C(C)(C)C)CC2)S(=O)(=O)c2ccccn2)Cc2cc(C#N)ccc21 (configuration not stated)', 'label 1'),
  ('Cn1cncc1CN1CC(N(CCc2ccccc2C(F)(F)F)S(=O)(=O)c2ccccn2)Cc2cc(C#N)ccc21 (configuration not stated)', 'label 0'),
  ('COC(=O)N1CCC(CN(C2Cc3cc(C#N)ccc3N(Cc3cncn3C)C2)S(=O)(=O)c2cccc3ccccc23)CC1 (configuration not stated)', 'label 0'),
  ('Cn1cncc1CN1CC(N(Cc2ccc(S(C)(=O)=O)cc2)S(=O)(=O)c2ccc3c(c2)OCCCO3)Cc2cc(C#N)ccc21 (configuration not stated)', 'label 1'),
  ('CCS(=O)(=O)c1ccc(CN(C2Cc3cc(C#N)ccc3N(Cc3cncn3C)C2)S(=O)(=O)c2cn(C)cn2)cc1 (configuration not stated)', 'label 1'),
  ('COC(=O)N1CCC(CN(C2Cc3cc(C#N)ccc3N(Cc3cncn3C)C2)S(=O)(=O)c2cccnc2)CC1 (configuration not stated)', 'label 1'),
  ('COC(=O)N1CCC(CN(C2Cc3cc(C#N)ccc3N(Cc3cncn3C)C2)S(=O)(=O)c2cccc3cccnc23)CC1 (configuration not stated)', 'label 1'),
  ('CCOc1ccccc1CN(C1Cc2cc(C#N)ccc2N(Cc2cncn2C)C1)S(=O)(=O)c1cn(C)cn1 (configuration not stated)', 'label 0'),
  ('CN(C)CCCN(C1Cc2cc(C#N)ccc2N(Cc2cncn2C)C1)S(=O)(=O)c1cn(C)cn1 (configuration not stated)', 'label 0'),
  ('Cn1cnc(S(=O)(=O)N(CCCCON2C(=O)c3ccccc3C2=O)C2Cc3cc(C#N)ccc3N(Cc3cncn3C)C2)c1 (configuration not stated)', 'label 1'),
  ('COC(=O)c1ccnc(CN(C2Cc3cc(C#N)ccc3N(Cc3cncn3C)C2)S(=O)(=O)c2cn(C)cn2)c1 (configuration not stated)', 'label 1'),
  ('Cn1cnc(S(=O)(=O)N(CC(=O)O)C2Cc3cc(C#N)ccc3N(Cc3cncn3C)C2)c1 (configuration not stated)', 'label 1'),
  ('COC(=O)N(Cc1ccccc1F)C1Cc2cc(C#N)ccc2N(Cc2cncn2C)C1 (configuration not stated)', 'label 1'),
  ('Cn1cncc1CN1CC(N(Cc2ccccc2F)S(C)(=O)=O)Cc2cc(C#N)ccc21 (configuration not stated)', 'label 0'),
  ('Cn1cnc(S(=O)(=O)N(CCOc2cccc3c2OCCO3)C2Cc3cc(C#N)ccc3N(Cc3cncn3C)C2)c1 (configuration not stated)', 'label 1'),
  ('Cc1c(S(=O)(=O)N(CC2CCN(C(=O)OC(C)(C)C)CC2)C2Cc3cc(C#N)ccc3N(Cc3cncn3C)C2)ncn1C (configuration not stated)', 'label 1'),
  ('Cn1cncc1CN1CC(N(CCn2ccc3ccccc32)S(=O)(=O)c2ccccn2)Cc2cc(C#N)ccc21 (configuration not stated)', 'label 1'),
  ('Cn1cnc(CN2CC(N(Cc3ccc(C(F)(F)F)o3)S(=O)(=O)c3cn(C)cn3)Cc3cc(-c4ccccc4)ccc32)c1 (configuration not stated)', 'label 0'),
  ('COC(=O)N1CCC(CN(C2Cc3cc(C#N)ccc3N(Cc3cncn3C)C2)S(=O)(=O)c2cn(C)cn2)CC1 (configuration not stated)', 'label 1'),
  ('Cn1cnc(S(=O)(=O)N(Cc2cc3nsnc3cc2Cl)C2Cc3cc(C#N)ccc3N(Cc3cncn3C)C2)c1 (configuration not stated)', 'label 0'),
  ('Cc1ccccc1CN(C1Cc2cc(-c3ccccc3)ccc2N(Cc2cn(C)cn2)C1)S(=O)(=O)c1cn(C)cn1 (configuration not stated)', 'label 0'),
  ('CN(C)S(=O)(=O)N(Cc1ccccc1F)C1Cc2cc(C#N)ccc2N(Cc2cncn2C)C1 (configuration not stated)', 'label 1'),
  ('Cn1cnc(S(=O)(=O)N(CC(=O)NC(C)(C)C)C2Cc3cc(C(=O)NCc4ccccc4)ccc3N(Cc3cncn3C)C2)c1 (configuration not stated)', 'label 0');
